- Tested on: ATP;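 also: ATP exposure 15 min at 22 °C before imaging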
- ASSAY_INFO: switch fluorescence ratio, 500 uM ATP over buffer (Cy3 cluster intensity, sum of 5 cycles each) (fold (ratio)); higher = stronger signal-on switching upon ATP binding; sequences stand for … in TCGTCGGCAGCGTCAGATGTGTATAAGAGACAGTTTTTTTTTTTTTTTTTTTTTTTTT…TC
- TEST_CONDITIONS: aptamer strand: ATP DNA aptamer (quencher-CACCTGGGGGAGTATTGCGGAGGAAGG + anchor), 100 nM annealed; ATP concentration: 500 uM
Reported values of switch fluorescence ratio for individual entries
EXPERIMENTAL_ENDPOINT: switch fluorescence ratio

>  <RECORD_SEQUENCE>
GCCAGGGATT

>  <READING>
1.01

$$$$
>  <RECORD_SEQUENCE>
AAGTGGGGA

>  <READING>
0.986

$$$$
>  <RECORD_SEQUENCE>
TTCAAACGAG

>  <READING>
1.01

$$$$

* * *

- Test system: ATP;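 also: ATP exposure 15 min at 22 °C before imaging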
- ASSAY_INFO: switch fluorescence ratio, 500 uM ATP over buffer (Cy3 cluster intensity, sum of 5 cycles each) (fold (ratio)); higher = stronger signal-on switching upon ATP binding; sequences stand for … in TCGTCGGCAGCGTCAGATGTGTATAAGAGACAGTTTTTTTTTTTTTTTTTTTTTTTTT…TC
- TEST_CONDITIONS: aptamer strand: ATP DNA aptamer (quencher-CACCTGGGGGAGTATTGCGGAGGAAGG + anchor), 100 nM annealed; ATP concentration: 500 uM
EXPERIMENTAL_ENDPOINT: switch fluorescence ratio

>  <RECORD_SEQUENCE>
AGGATAAATT

>  <READING>
0.983

$$$$
>  <RECORD_SEQUENCE>
GATCTAGGAG

>  <READING>
1.02

$$$$
>  <RECORD_SEQUENCE>
TGCGGGCAAT

>  <READING>
1.1

$$$$
>  <RECORD_SEQUENCE>
GCGATAAGAT

>  <READING>
1

$$$$
>  <RECORD_SEQUENCE>
AGGAGAGGGT

>  <READING>
0.967

$$$$
>  <RECORD_SEQUENCE>
GCTTAATACT

>  <READING>
1.37

$$$$
>  <RECORD_SEQUENCE>
ATCAGAGGGG

>  <READING>
1.03

$$$$
>  <RECORD_SEQUENCE>
AGTTTTGTGT

>  <READING>
0.972

$$$$
>  <RECORD_SEQUENCE>
ATTCCAATTT

>  <READING>
1.08

$$$$
>  <RECORD_SEQUENCE>
TTGCAGTAAT

>  <READING>
1.87

$$$$
>  <RECORD_SEQUENCE>
GGGGGACACT

>  <READING>
1.01

$$$$
>  <RECORD_SEQUENCE>
CTCAATTCTG

>  <READING>
0.969

$$$$
>  <RECORD_SEQUENCE>
GTTGGAAGAG

>  <READING>
0.957

$$$$
>  <RECORD_SEQUENCE>
TCGTTGTGCT

>  <READING>
0.964

$$$$
>  <RECORD_SEQUENCE>
TAGGGGTGCC

>  <READING>
0.98

$$$$
>  <RECORD_SEQUENCE>
CGCGAGGACT

>  <READING>
1.27

$$$$
>  <RECORD_SEQUENCE>
GAAGGGTCTG

>  <READING>
0.969

$$$$
>  <RECORD_SEQUENCE>
TGTGGATGGT

>  <READING>
0.956

$$$$
>  <RECORD_SEQUENCE>
CGCGTCAACG

>  <READING>
1.01

$$$$
>  <RECORD_SEQUENCE>
AATTTTATTG

>  <READING>
0.988

$$$$
>  <RECORD_SEQUENCE>
GACCGATTTT

>  <READING>
0.989

$$$$
>  <RECORD_SEQUENCE>
TAAGCAGGTT

>  <READING>
0.995

$$$$
>  <RECORD_SEQUENCE>
TCGGTTGAAG

>  <READING>
0.988

$$$$
>  <RECORD_SEQUENCE>
GGGTGCAATT

>  <READING>
1.05

$$$$
>  <RECORD_SEQUENCE>
GAAGGAGGGC

>  <READING>
0.995

$$$$
>  <RECORD_SEQUENCE>
GGGATATGGA

>  <READING>
1.04

$$$$
>  <RECORD_SEQUENCE>
TCTTTGATGA

>  <READING>
0.983

$$$$
>  <RECORD_SEQUENCE>
CTAAGCCAAT

>  <READING>
1.21

$$$$
>  <RECORD_SEQUENCE>
TAAAATTGTA

>  <READING>
0.992

$$$$
>  <RECORD_SEQUENCE>
CTGTGTGGCC

>  <READING>
0.968

$$$$
>  <RECORD_SEQUENCE>
CGTGTCGTGC

>  <READING>
0.971

$$$$
>  <RECORD_SEQUENCE>
ACATTCGACC

>  <READING>
1.11

$$$$
>  <RECORD_SEQUENCE>
CAAGTTCGTG

>  <READING>
1

$$$$
>  <RECORD_SEQUENCE>
TAGCGAGGGG

>  <READING>
0.985

$$$$
>  <RECORD_SEQUENCE>
TAGGACGGGT

>  <READING>
0.993

$$$$
>  <RECORD_SEQUENCE>
GGGTGGTTTT

>  <READING>
1.01

$$$$
>  <RECORD_SEQUENCE>
TGATTGTGTA

>  <READING>
0.987

$$$$
>  <RECORD_SEQUENCE>
TAAAAAGTAC

>  <READING>
1.02

$$$$
>  <RECORD_SEQUENCE>
GGGCCTGGGA

>  <READING>
1.01

$$$$
>  <RECORD_SEQUENCE>
CGGGTTTTTT

>  <READING>
0.988

$$$$
>  <RECORD_SEQUENCE>
AAAAATAGGG

>  <READING>
1.03

$$$$
>  <RECORD_SEQUENCE>
AACCTGGGGT

>  <READING>
1.02

$$$$
>  <RECORD_SEQUENCE>
GGTTTAGGGC

>  <READING>
0.992

$$$$
>  <RECORD_SEQUENCE>
TTGGAGGGTG

>  <READING>
1.01

$$$$
>  <RECORD_SEQUENCE>
AGCAAGAGGC

>  <READING>
1.26

$$$$
>  <RECORD_SEQUENCE>
TCAATAGAGT

>  <READING>
1.04

$$$$
>  <RECORD_SEQUENCE>
TATTGCGATT

>  <READING>
0.994

$$$$
>  <RECORD_SEQUENCE>
CGAGACCACA

>  <READING>
1.05

$$$$
>  <RECORD_SEQUENCE>
GGTCCGATTA

>  <READING>
1

$$$$
>  <RECORD_SEQUENCE>
GTTTGGGTCA

>  <READING>
1.03

$$$$
>  <RECORD_SEQUENCE>
TGCGCCCGGC

>  <READING>
1.03

$$$$
>  <RECORD_SEQUENCE>
AGGGGGGAGT

>  <READING>
1.02

$$$$
>  <RECORD_SEQUENCE>
GATTTTATTG

>  <READING>
1.01

$$$$
>  <RECORD_SEQUENCE>
ATGGGAAACG

>  <READING>
0.995

$$$$
>  <RECORD_SEQUENCE>
TTTGGCTTGG

>  <READING>
0.992

$$$$
>  <RECORD_SEQUENCE>
GATGAAAGGT

>  <READING>
1

$$$$
>  <RECORD_SEQUENCE>
TGCGGGGGAT

>  <READING>
1.02

$$$$
>  <RECORD_SEQUENCE>
TGTAGCCAGT

>  <READING>
1.05

$$$$
>  <RECORD_SEQUENCE>
ACGGTAGTGC

>  <READING>
1.04

$$$$
>  <RECORD_SEQUENCE>
AGTTCATATA

>  <READING>
1.01

$$$$
>  <RECORD_SEQUENCE>
CCAAAGCCTC

>  <READING>
2.69

$$$$
>  <RECORD_SEQUENCE>
ACTTGCGGGC

>  <READING>
1.03

$$$$
>  <RECORD_SEQUENCE>
CGTCTAAAC

>  <READING>
1.13

$$$$
>  <RECORD_SEQUENCE>
GAGGGAAGTA

>  <READING>
1.06

$$$$
>  <RECORD_SEQUENCE>
TTCAATAGGA

>  <READING>
1.03

$$$$
>  <RECORD_SEQUENCE>
AAAACTGAGC

>  <READING>
1.08

$$$$
